Exercise: state measured Growth Rate for each of the molecules provided.
test system: Fibroblast; test: Incucyte cell viability with human fibroblast; format: toxicity, cell-based; conditions: 6 h, 10 µM, compound concentration 10 uM, replicate number 2, timepoint 6 hours; further: filed as whole numbers so only -1 and 0 and 1 occur
// return just the number, without any unit appended

Any idea what its Growth Rate is? The molecule is Cl.N#Cc1ccc2[nH]cc(CCCCN3CCN(c4ccc5oc(C(N)=O)cc5c4)CC3)c2c1 [VILAZODONE HYDROCHLORIDE] 0

Reported Growth Rate for COc1cccc([C@@H](C)NCCCc2ccccc2Cl)c1.Cl [TECALCET HYDROCHLORIDE] : what is it? 0

Request the reported Growth Rate associated with `CN1C(=O)c2sccc2N(C)c2nc(Nc3ccc(S(N)(=O)=O)cc3)ncc21` 0

Which Growth Rate reading was recorded for the molecule CN([C@@H]1CCc2c(CC(=O)O)c3cc(S(C)(=O)=O)ccc3n2C1)S(=O)(=O)c1ccc(F)cc1 [CRTH2-negative-control] ? 0

Entry CNCCC(Oc1ccc(C(F)(F)F)cc1)c1ccccc1.Cl (stereo not given) [FLUOXETINE HYDROCHLORIDE] has what Growth Rate? 0

What Growth Rate value was documented for this molecule, `Cc1csc2c(N[C@@H](C)CN3CCN(S(=O)(=O)c4ccc(Cl)c(Cl)c4)CC3)ncnc12` ? 0

Could you share which Growth Rate value was measured for CN1CCC[C@@H]1CCO[C@](C)(c1ccccc1)c1ccc(Cl)cc1.O=C(O)/C=C/C(=O)O [CLEMASTINE FUMARATE] ? 0

Given `Clc1cccc(-c2nnnn2Cc2cccnc2)c1Cl` , state its recorded Growth Rate. 0

Record request: Growth Rate value, item CN1CCCC(n2nc(Cc3ccc(Cl)cc3)c3ccccc3c2=O)CC1.Cl (stereo not given) [AZELASTINE HYDROCHLORIDE] 0

Bench note: what Growth Rate did `COc1ccc(Cn2ccc3ccc(C(=O)NO)cc32)cc1` show? 1

Fill in: Growth Rate of O=C(O)C[C@H]1CCc2c1[nH]c1ccc(OCc3ccc(C4CCCC4)c(C(F)(F)F)c3)cc21 [ETRASIMOD] is ___ 0

What Growth Rate value was documented for this molecule, CNC(=NCCSCc1csc(N=C(N)N)n1)NC#N [TIOTIDINE] ? 0

Consider the molecule C[S+]([O-])c1ccc(-c2nc(-c3ccncc3)c(-c3ccc(F)cc3)[nH]2)cc1 (stereo not given) [SB-203580] and give its measured Growth Rate. 0

Give its Growth Rate value. Item: C=C1/C(=C\C=C2/CCC[C@]3(C)[C@@H]([C@H](C)/C=C/C=C/C(O)(CC)CC)CC[C@@H]23)C[C@@H](O)C[C@@H]1O [SEOCALCITOL] 0

Query: Growth Rate; subject: CC(=O)C1=C(C)N(c2cccc(C(F)(F)F)c2)C(=O)N[C@H]1c1ccc(C#N)nc1 [BAY-677] 1

Field request: Growth Rate | item: `CC(C)(O)CNc1ncc(-c2ccnc(Nc3ccnc(Cl)c3)n2)c(CC2CC2)n1` 1

Form field: reported Growth Rate of `CCOc1cc(N2CCC(O)CC2)ccc1Nc1ncc2c(n1)N(C)c1ccccc1C(=O)N2C` 0

Fill in the blank: the reported Growth Rate of `O=C(O)c1ccc(-c2coc3ncc(-c4ccccc4)cc23)cc1Cl` is ____. 0

Can you share its Growth Rate? I mean this molecule: `COc1cc2nccc(Oc3ccc(NC(=O)Nc4cc(C)on4)c(Cl)c3)c2cc1OC.O` 1

Quick one: Growth Rate for CC(=O)Nc1c(C(C)=O)c(=O)n(C)c2nc(-c3ccc(Cl)cc3Cl)c(-c3ccc(Cl)cc3)cc12 [NAPHTHYRIDINONE] ? 0

Dear colleague, I am looking for the recorded Growth Rate of the following molecule: COc1ccc2cc(OCC3(C(=O)O)CN(C(=O)c4ccc(F)cc4)C3)ccc2c1 [PF-04418948] 1

Growth Rate for C[C@H](c1ccc(F)cc1)N(Cc1ccc(Cl)c(C(=O)O)c1)C(=O)c1cnc2ccccc2c1 [PF-05257137] ? 0

Recorded Growth Rate for Cc1nc(-c2ccc(-c3ccc(C(=O)N4CCc5cc6c(cc54)C4(CCN(C)CC4)CO6)cc3)c(C)c2)no1 [SB-224289] , please? 0

Can you look up the measured Growth Rate of `O=C(NCc1ccccc1)c1ccc(S(=O)(=O)NCc2ccccc2)cc1` for me? 1

Consider the molecule Nc1c(C(=O)NCc2ccc(C(=O)NCCCC3CCCCC3)cc2)cnn1-c1ccccc1 [SR-318] and give its measured Growth Rate. 0

Field request: Growth Rate | item: CN(c1ccnc(CNc2nc(Nc3ccc4c(c3)CC(=O)N4)ncc2C(F)(F)F)n1)S(C)(=O)=O [PF-00911705] 0

Which Growth Rate value belongs to `Cc1sc2c(c1C)C(c1ccc(Cl)cc1)=N[C@@H](CC(=O)OC(C)(C)C)c1nnc(C)n1-2` ? 1

What value of Growth Rate has been reported for the following molecule? `CCCCN1CCC(COC(=O)c2cc(Cl)c(N)c3c2OCCO3)CC1.Cl` 0

So what does the record say about Growth Rate for O=C(NCCCC1CCCCC1)c1ccc(CNC(=O)c2cnn(-c3ccccc3)c2C(F)(F)F)cc1 [SR-321] ? 0

Given the molecule O=c1nc(-c2ccccn2)sc2ccccc12 [BTZO-1] , what is its reported Growth Rate? 1

Any idea what Growth Rate was measured for `C=CC(=O)Nc1cccc(C(=O)Nc2ccc(Nc3cc(-c4[nH]c(SC)nc4C)ccn3)cc2)c1` ? 1

Entry CC(C)(C)NCC(O)COc1cccc2[nH]c(=O)[nH]c12.Cl (stereo not given) has what Growth Rate? 0

Value lookup for Growth Rate; key = `NC(=O)c1ccc(NC(=O)NCc2cccc(C(=O)Nc3ccc4c(c3)CNCC4)c2)cc1` 1

Growth Rate lookup needed for `CNCCN1CCC(OCc2ccccc2)CC1` , thanks. 1

For the molecule shown here, `C[C@@H](c1cccc(CN)c1)n1cc(Cl)cc(C(N)=O)c1=N.Cl` , give the reported Growth Rate. 0
